Tested on: LOX IMVI
Test: NCI tumour cell line growth inhibition, 48 h
The source made the active and inactive calls. Cut-off read from the data, not from the text of the source: active = GI50 up to about 1.1 µM and inactive = higher.
Result category, one only: active, inactive

• CC(=O)OC12CC(C)C3(O)C4C=C(C)C(=O)[C@@]4(O)CC(CO)=C[C@H]3C1C2(C)C (stereo not given in full) = inactive
• O=[N+]([O-])c1ccc(/N=N\c2c(O)ccc3ccccc23)c([N+](=O)[O-])c1 = inactive

Incoming: Record request — test call for "COc1cc2c(/C=C3/C(=O)Nc4ccccc43)c(Cl)[nH]c2cc1C"
Outgoing: active

Incoming: Returns: the outcome recorded for "O=C1NC(=S)N/C1=C\c1ccc(Cl)cc1" in this assay.
Outgoing: inactive

Incoming: Fill in: this test's call for "Cc1cc(C)nc(NS(=O)(=O)c2ccc(NNc3c4ccccc4nc4c(C(=O)Nc5ccc(S(=O)(=O)N=C(N)N)cc5)cccc34)cc2)n1" is ___
Outgoing: inactive

Incoming: Returns: the outcome recorded for "COc1ccc(CCN2CCC(C#N)(c3ccc(OC)c(OC)c3)CC2)cc1OC" in this assay.
Outgoing: inactive

Incoming: Could you kindly confirm the outcome this assay logged for "CCOC(=O)N1CCN(c2c(N)nc(C)nc2O)CC1" ?
Outgoing: inactive

Incoming: # lookup: test call for "Cc1ccc(Cc2n[nH]c(=O)n2/N=C\CC/C=N\n2c(Cc3ccc(C)cc3)n[nH]c2=O)cc1"
Outgoing: inactive

Incoming: Assay result, entry COC(=O)C1(C(=O)OC)N=C(C)OC1/C=C/c1ccccc1 (stereo not given) — outcome?
Outgoing: inactive

Incoming: Call for entry "O=C(O)Cc1c[nH]c2ccc(F)cc12" :
Outgoing: inactive

====

GI50 values for the compounds below.
Test system: HOP-62
Test: NCI tumour cell line growth inhibition, 48 h
The source made the active and inactive calls. No stated cut-off is given here; in the data, active = GI50 up to about 1.1 µM and inactive = higher.

Past entries and their recorded results:
• COc1cc(C(=O)/C=C/c2ccc(OCCSCCCCCCCCCCSCCOc3ccc(/C=C/C(=O)c4cc(OC)c(OC)c(OC)c4)cc3)cc2)cc(OC)c1OC = > 100 µM (inactive)
• CC(C)[C@H](NC(=O)OCc1ccccc1)C(=O)N[C@H](/C=C/C(=O)OC(C)(C)C)CO = > 100 µM (inactive)
• O=S(=O)(O)c1ccc(/N=N/c2ccc(/N=N/c3c(O)ccc4ccccc34)cc2)cc1 = > 100 µM (inactive)
• CC(=O)OC12CC(C)C3(O)C4C=C(C)C(=O)[C@@]4(O)CC(CO)=C[C@H]3C1C2(C)C (stereo not given in full) = > 100 µM (inactive)

Here's the next entry for you.
HOP-62 data for "NC(=S)NN=Cc1ccccc1OCc1cccc(COc2ccccc2C=NNC(N)=S)n1" ; its GI50: 6.56 µM (inactive)

====

Each entry below lists one item and its recorded GI50 value.
Test system: Malme-3M
Experiment: NCI tumour cell line growth inhibition, 48 h
The source made the active and inactive calls. Cut-off read from the data, not from the text of the source: active = GI50 up to about 1.1 µM and inactive = higher.

Guide cases for GI50, answers given:
• COC(=O)c1cc(C)ccc1CC(Cc1ccccc1C)C(=O)OC (stereo not given) = 23.2 µM (inactive)
• COc1cccc(C(=O)N[C@@H]2[C@H](O)[C@@H](CO)O[C@H]2n2cnc3c(N)ncnc32)c1 = > 100 µM (inactive)

The compound listed as CC(C)(C)OC(=O)NNC(=O)C1Cc2ccccc2OC1=O (stereo not given) has a reported GI50 of > 100 µM (inactive)

Record O=P(O)(Cc1ccccc1)OCC1(O)OCC(O)C(O)C1O (stereo not given) , field GI50: > 10 µM (inactive)

response.value for "Cc1cc(C2(c3cc(C)c(O)c(C(=O)O)c3)OS(=O)(=O)c3ccccc32)cc(C(=O)O)c1O" (field: GI50) = > 100 µM (inactive)
